measuredOn: RXR receptor (Homo sapiens, UniProt P19793)
Construct: expressed in transfected cells
Sequence (P19793 whole entry): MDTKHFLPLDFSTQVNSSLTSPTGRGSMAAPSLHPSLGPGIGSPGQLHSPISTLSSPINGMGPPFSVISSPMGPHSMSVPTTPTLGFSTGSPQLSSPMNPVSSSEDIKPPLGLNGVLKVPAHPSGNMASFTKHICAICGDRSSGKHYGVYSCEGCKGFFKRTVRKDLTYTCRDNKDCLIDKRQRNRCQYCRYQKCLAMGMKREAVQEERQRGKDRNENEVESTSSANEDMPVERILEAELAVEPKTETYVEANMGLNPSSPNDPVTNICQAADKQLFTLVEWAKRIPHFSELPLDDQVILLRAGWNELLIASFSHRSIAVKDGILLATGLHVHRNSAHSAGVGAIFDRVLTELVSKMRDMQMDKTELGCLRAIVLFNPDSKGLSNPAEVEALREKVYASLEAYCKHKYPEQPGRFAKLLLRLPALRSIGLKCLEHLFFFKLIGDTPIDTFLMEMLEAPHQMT
protocolDescription: RXR activation (transient transfection reporter assay)
Format: cell-based
experimentalSetup: 1 μM compared to 9-cis-RA at equal concentration
Items are presented alongside their recorded RXR Activation.
Numbers only; they are read as %.

Requested read-out RXR Activation, target or system RXR receptor (Homo sapiens, UniProt P19793), entry Cc1cc2c(cc1-c1cc(C=C3SC(=O)NC3=O)ccc1OC(F)(F)F)C(C)(C)CCC2(C)C
110

Requested read-out RXR Activation, target or system RXR receptor (Homo sapiens, UniProt P19793), entry CON=C1CCC(C)(C)c2cc(C)c(-c3cc(C=C4SC(=O)NC4=O)ccc3OC(F)(F)F)cc21
100

Requested read-out RXR Activation, target or system RXR receptor (Homo sapiens, UniProt P19793), entry CCN1C(=O)CC(C)(C)c2cc(C)c(-c3cc(/C=C4\SC(=O)NC4=O)ccc3OC(F)(F)F)cc21
90

Requested read-out RXR Activation, target or system RXR receptor (Homo sapiens, UniProt P19793), entry Cc1cc2c(cc1-c1cc(C=C3SC(=O)NC3=O)ccc1N(C)C)C(C)(C)CCC2(C)C
120

Requested read-out RXR Activation, target or system RXR receptor (Homo sapiens, UniProt P19793), entry CC(C)Cc1cc(-c2cc(C=C3SC(=O)NC3=O)ccc2OC(F)(F)F)c2c(c1)C(C)(C)CO2
125

====

System: Mouse 3T3-L1 preadipocytes
protocolDescription: 3T3-L1 adipocyte differentiation assay
Type: cell-based
experimentalSetup: 0.1 μM compared to Compound 1 at equal concentration; pre-adipocytes to adipocytes
recordedMetric: Differentiation Activity (%)
Numbers only; they are read as %.

Below, 4 molecules whose answers are already recorded.
CON=C1CCC(C)(C)c2cc(C)c(-c3cc(C=C4SC(=O)NC4=O)ccc3OC(F)(F)F)cc21 [Compound 7] :: 80
Cc1cc2c(cc1-c1cc(C=C3SC(=O)NC3=O)ccc1N(C)C)C(C)(C)CCC2(C)C [Compound 3] :: 100
Cc1cc2c(cc1-c1cc(C=C3SC(=O)NC3=O)ccc1OC(F)(F)F)C(C)(C)CCC2(C)C [Compound 1] :: 100
CCN1C(=O)CC(C)(C)c2cc(C)c(-c3cc(/C=C4\SC(=O)NC4=O)ccc3OC(F)(F)F)cc21 [Compound 8] :: 95

Read the next record carefully.
Fill blank: measured Differentiation Activity of the molecule CC(C)Cc1cc(-c2cc(C=C3SC(=O)NC3=O)ccc2OC(F)(F)F)c2c(c1)C(C)(C)CO2 [Compound 9] is ____.
30
